Measured IC50 of inhibition of cleavage of chemical substrate S2302 by FXIIa (OD405) values are reported for all entries that follow.
# ASSAYED TARGET: T1, huFXII-his (human, UniProt P00748 20-615)
# T1 sequence (looked up): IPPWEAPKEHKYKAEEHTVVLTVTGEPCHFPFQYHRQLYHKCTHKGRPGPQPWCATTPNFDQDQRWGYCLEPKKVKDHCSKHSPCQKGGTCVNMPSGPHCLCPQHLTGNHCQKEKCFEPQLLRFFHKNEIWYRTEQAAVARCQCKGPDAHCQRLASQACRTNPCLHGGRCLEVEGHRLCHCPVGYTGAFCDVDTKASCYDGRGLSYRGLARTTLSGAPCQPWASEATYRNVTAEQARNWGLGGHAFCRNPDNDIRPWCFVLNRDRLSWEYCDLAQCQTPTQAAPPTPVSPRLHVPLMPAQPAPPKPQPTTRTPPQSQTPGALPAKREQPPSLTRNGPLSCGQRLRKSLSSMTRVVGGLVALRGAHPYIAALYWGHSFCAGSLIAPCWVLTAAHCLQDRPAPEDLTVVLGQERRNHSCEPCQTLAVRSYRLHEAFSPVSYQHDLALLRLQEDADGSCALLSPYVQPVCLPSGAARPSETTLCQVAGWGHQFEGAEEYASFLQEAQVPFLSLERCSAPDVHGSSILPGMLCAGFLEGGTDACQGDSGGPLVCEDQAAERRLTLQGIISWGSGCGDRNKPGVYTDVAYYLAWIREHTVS
# METHOD: cell-based or functional assay
Quick note: give the figure in µg/mL, leave out the unit.

FX-Y17-Y26 (antibody, V domains shown) VH: EVQLLESGGGLVQPGGSLRLSCAGSGFSFGSQTMSWVRQAPGKGLEWVSSISVISGRTYYADSVKGRFTISRDNSKNTLYLQMNSLRAEDTAVYYCTKSHAFDVWGQGTMVTVSS VL: EIVLTQSPATLSVSPGERATLSCRASQSVYSALAWYQQKPGQAPRLLIYGASTRATGIPARFSGSGSGTEFTLTISSLQSEDFAVYYCQQYHKWPLSFGGGTKVEIK; 0.0163
FX-Y17-Y48 (antibody, V domains shown) VH: EVQLLESGGGLVQPGGSLRLSCAGSGFSFGSQTMSWVRQAPGKGLEWVSSISVISGRAYYADSVKGRFTISRDNSKNTLYLQMNSLRAEDTAVYYCTRSHAFDVWGQGTMVTVSS VL: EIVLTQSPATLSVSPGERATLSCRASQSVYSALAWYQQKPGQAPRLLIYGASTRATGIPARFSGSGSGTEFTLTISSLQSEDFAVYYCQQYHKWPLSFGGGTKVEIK; 0.0141
FX-Y17-Y24 (antibody, V domains shown) VH: EVQLLESGGGLVQPGGSLRLSCAGSGFSFGSQTMSWVRQAPGKGLEWVSSISYISGRTYYADSVKGRFTISRDNSKNTLYLQMNSLRAEDTAVYYCTKGHAFDVWGQGTMVTVSS VL: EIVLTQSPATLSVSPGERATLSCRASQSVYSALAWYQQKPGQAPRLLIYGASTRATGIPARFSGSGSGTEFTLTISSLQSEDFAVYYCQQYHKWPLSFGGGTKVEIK; 0.0166

Proceed to the following item.
INPUT: IC50 of inhibition of cleavage of chemical substrate S2302 by FXIIa (OD405) for FX-Y17-Y36 (antibody, V domains shown) VH: EVQLLESGGGLVQPGGSLRLSCAGSGFSFGSQTMSWVRQAPGKGLEWVSSISVISKRTYYADSVKGRFTISRDNSKNTLYLQMNSLRAEDTAVYYCTKSHAFDVWGQGTMVTVSS VL: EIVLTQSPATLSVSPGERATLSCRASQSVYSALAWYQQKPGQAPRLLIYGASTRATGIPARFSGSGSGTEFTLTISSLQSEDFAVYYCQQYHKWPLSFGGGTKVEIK ?
OUTPUT: 0.0155
